meta.source: patent US20160137630A1

Recorded pIC50 by entry
# TARGET_OF_ASSAY: HDAC1 (Homo sapiens, UniProt Q13547)
# Sequence (Q13547 whole entry): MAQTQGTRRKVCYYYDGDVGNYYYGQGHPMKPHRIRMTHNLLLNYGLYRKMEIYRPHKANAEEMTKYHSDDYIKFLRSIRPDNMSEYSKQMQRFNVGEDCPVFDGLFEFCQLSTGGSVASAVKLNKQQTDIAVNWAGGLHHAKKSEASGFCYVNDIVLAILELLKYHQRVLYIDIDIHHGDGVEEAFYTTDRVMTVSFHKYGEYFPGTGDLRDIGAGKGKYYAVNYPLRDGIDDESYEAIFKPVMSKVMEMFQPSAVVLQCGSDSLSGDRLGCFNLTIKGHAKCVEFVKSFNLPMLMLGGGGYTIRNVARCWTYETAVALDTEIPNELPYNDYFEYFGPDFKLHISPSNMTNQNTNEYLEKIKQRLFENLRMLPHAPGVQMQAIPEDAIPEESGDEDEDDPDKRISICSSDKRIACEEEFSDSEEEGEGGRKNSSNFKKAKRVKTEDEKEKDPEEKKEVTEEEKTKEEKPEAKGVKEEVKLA
# PROCEDURE_DETAILS: in vitro biochemical HDAC inhibition assay
# CONDITION_INFO: Table 2; read-out: IC50 HDAC1
pIC50: −log10 of the molar value.

substance_smiles=Nc1ccccc1NC(=O)c1ccc2nc(N3CCNCC3)ccc2c1 target_of_assay="HDAC1 (Homo sapiens, UniProt Q13547)" observed_result="< 5.70"

Report pIC50 for COCCOc1cc2ncc(C(=O)Nc3cc(-c4ccccc4)ccc3N)cc2cc1C1CC1 please.
< 5.70

Report pIC50 for COCCn1cc(C2CC2)c2cc(C(=O)Nc3cc(-c4ccccc4)ccc3N)ccc21 please.
< 5.70
